targetUnderTest: T1, DPPIV expressed on HEK293 or CHO cells (Homo sapiens (Human), UniProt P27487 1-766)
T1 construct: also called close homologue of FAP
assayName: binding to DPPIV-expressing HEK293 or CHO cells
measure: binding result

>>> val("14B3 Fab (Fab, V domains shown, also called clone 14B3) VH: EVQLLESGGGLVQPGGSLRLSCAASGFTFSSYAMSWVRQAPGKGLEWVSAILASGAITYYADSVKGRFTISRDNSKNTLYLQMNSLRAEDTAVYYCAKGWFGGFNYWGQGTLVTVSS VL: EIVLTQSPGTLSLSPGERATLSCRASQSVTSSYLAWYQQKPGQAPRLLINVGSRRATGIPDRFSGSGSGTDFTLTISRLEPEDFAVYYCQQGIMLPPTFGQGTKVEIK")
"no binding"
>>> val("5B8 Fab (Fab, V domains shown, also called clone 5B8) VH: EVQLLESGGGLVQPGGSLRLSCAASGFTFSSYAMSWVRQAPGKGLEWVSAIWGGGRSTYYADSVKGRFTISRDNSKNTLYLQMNSLRAEDTAVYYCAKGWFGGFNYWGQGTLVTVSS VL: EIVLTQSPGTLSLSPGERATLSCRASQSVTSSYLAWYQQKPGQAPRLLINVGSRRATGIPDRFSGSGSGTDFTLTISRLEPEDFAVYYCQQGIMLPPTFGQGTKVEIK")
"no binding"
>>> val("22A3 Fab (Fab, V domains shown, also called clone 22A3) VH: EVQLLESGGGLVQPGGSLRLSCAASGFTFSSYAMSWVRQAPGKGLEWVSAIIGSGSITYYADSVKGRFTISRDNSKNTLYLQMNSLRAEDTAVYYCAKGWFGGFNYWGQGTLVTVSS VL: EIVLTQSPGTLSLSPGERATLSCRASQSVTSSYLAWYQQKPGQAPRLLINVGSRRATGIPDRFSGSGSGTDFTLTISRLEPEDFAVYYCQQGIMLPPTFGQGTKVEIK")
"no binding"
